# System: 377384-186-R-J1-PDC complex spheroid viability;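 also: luminescence signal used as a stand-in for viable cells; spheroids exposed to agents for 7 days before reading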
# method.summary: Anticancer human tumor 377384-186-R-J1-PDC patient-derived pancreatic carcinoma cell line growth inhibition [CLK]
# run.conditions: second compound 0.316 µM; first compound 10 µM; hits give low values
Kindly apply the following: Condition met if viability, T/C is less than 10%, Condition not met in every other case.

Q. Just wondering, is viability, T/C of CCCS(=O)(=O)Nc1ccc(F)c(C(=O)c2c[nH]c3ncc(-c4ccc(Cl)cc4)cc23)c1F + CNC(=O)c1ccc(Nc2nc(OC3CCCC3)c3c(-c4ccc5nc(C)oc5c4)c[nH]c3n2)c(OC)c1 below 10%?
A. Condition not met
